# Tested on: PC-3
# method: cells
# condition-parameters: Homo sapiens, PC-3, 48 h
# Description: Antiproliferative activity against human PC-3 cells after 48 hrs by MTT assay
observation-type: pIC50
# reply with the number alone; pIC50 is -log10 of concentration in mol/L

INSERT INTO assay_data (structure_string, test_result) VALUES
  ('O=c1[nH]cc(F)c(=O)[nH]1', 3.97);

Shift focus to the following entry.
Lookup: # pIC50 lookup, item CC(C)C[C@H](NC(=O)[C@@H](O)[C@H](N)Cc1ccccc1)C(=O)OCn1cc(F)c(=O)[nH]c1=O.Cl
Found: 4.61

----------
# System: HepG2
# method: Antiproliferative activity against human HepG2 cells after 48 hrs by MTT assay
# condition-parameters: HepG2, 48 h
observation-type: IC50 (µM)
Output spec: scalar in µM, unitless text.

INSERT INTO results (structure_string, study_system, test_result) VALUES
  ('CC(C)C[C@H](NC(=O)[C@@H](O)[C@H](N)Cc1ccccc1)C(=O)OCn1cc(F)c(=O)[nH]c1=O.Cl', 'HepG2', 7.49);

Shift focus to the following entry.
Lookup: # IC50 lookup, item O=c1[nH]cc(F)c(=O)[nH]1
Found: 13.5

Data origin, for the record: ChEMBL document CHEMBL4715747
